Values from PubChem BioAssay AID1963840

// reported viability, T/C per item
- System: 695427-040-R-J1-PDC complex spheroid viability
- experiment: Anticancer human tumor 695427-040-R-J1-PDC patient-derived colon adenocarcinoma cell line growth inhibition [POLQ]
- condition_info: second compound 0.316 µM; first compound 0.316 µM; stronger effect = lower value
Your answer is read as %, so omit the unit and give the number.

Example entries begin here.
COc1cc2cc(C(=O)CCC(=O)O)sc2cc1OC + Nc1ccc(C#CCN(C(=O)Cc2ncc(C(F)(F)F)cc2C(F)(F)F)c2ccc(F)cc2)nn1 :: 94.1
COc1cccc(OCCCN)c1-c1cc(Nc2cnc(C#N)cn2)n[nH]1 + Cc1cccc(N(C)C(=O)C2C(O)CCN2c2nc(C)cc(C(F)(F)F)c2C#N)c1 :: 67.8
CCc1cc2c(N3CCc4c(cc(Cn5ccnc5)cc4-c4cn(C)nc4C(F)(F)F)C3=O)ccnc2c(OC)n1 + Nc1ccc(C#CCN(C(=O)Cc2ncc(C(F)(F)F)cc2C(F)(F)F)c2ccc(F)cc2)nn1 :: 93
C#Cc1c(F)ccc2cc(O)cc(-c3ncc4c(N5CC6CCC(C5)N6)nc(OCC56CCCN5CC(F)C6)nc4c3F)c12 (stereo not given) + Nc1ccc(C#CCN(C(=O)Cc2ncc(C(F)(F)F)cc2C(F)(F)F)c2ccc(F)cc2)nn1 :: 92.3
C=CC(=O)N1CCN(c2nc(=O)n(-c3c(C)ccnc3C(C)C)c3nc(-c4c(O)cccc4F)c(F)cc23)C(C)C1 (stereo not given) + Cc1cccc(N(C)C(=O)C2C(O)CCN2c2nc(C)cc(C(F)(F)F)c2C#N)c1 :: 101

Return value of viability, T/C for input COc1ccc([C@@H](O)c2cc(-c3ncnc4cc(N5CCOCC5)ccc34)c(F)cc2Cl)nn1 + Cc1cccc(N(C)C(=O)C2C(O)CCN2c2nc(C)cc(C(F)(F)F)c2C#N)c1 , no commentary.
103

Return value of viability, T/C for input CC1COCCN1c1cc(C2(S(C)(=N)=O)CC2)nc(-c2ccnc3[nH]ccc23)n1 (stereo not given) + COC1C(OC(N)=O)C(O)C(Oc2ccc3c(O)c(NC(=O)c4ccc(O)c(CC=C(C)C)c4)c(=O)oc3c2C)OC1(C)C , no commentary.
101

Return value of viability, T/C for input CC(C)n1c(=O)n(C)c2cnc3cc(F)c(-c4ccc(OCCCN5CCCCC5)nc4)cc3c21 + Nc1ccc(C#CCN(C(=O)Cc2ncc(C(F)(F)F)cc2C(F)(F)F)c2ccc(F)cc2)nn1 , no commentary.
103

Return value of viability, T/C for input C=CC(=O)N1CCN(c2nc(=O)n(-c3c(C)ccnc3C(C)C)c3nc(-c4c(O)cccc4F)c(F)cc23)C(C)C1 (stereo not given) + COC1C(OC(N)=O)C(O)C(Oc2ccc3c(O)c(NC(=O)c4ccc(O)c(CC=C(C)C)c4)c(=O)oc3c2C)OC1(C)C , no commentary.
102

Return value of viability, T/C for input O=C(Nc1ccc(O)c(NS(=O)(=O)c2ccc(F)cc2)c1)c1ccc(-c2ccccc2)cc1 + Nc1ccc(C#CCN(C(=O)Cc2ncc(C(F)(F)F)cc2C(F)(F)F)c2ccc(F)cc2)nn1 , no commentary.
99.8

* * *

- System: 695427-040-R-J1-PDC complex spheroid viability
- experiment: Anticancer human tumor 695427-040-R-J1-PDC cell line growth inhibition [POLQ];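 also: spheroids exposed to compounds for seven days; 100% = DMSO vehicle control viability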
- condition_info: second compound 10 µM; first compound 1 µM; stronger effect = lower value
// reported viability, T/C per item
Your answer is read as %, so omit the unit and give the number.

Example entries begin here.
CC1COCCN1c1cc(-c2ccnn2C)c2ccnc(-c3ccn[nH]3)c2n1 (stereo not drawn) + Cc1cccc(N(C)C(=O)C2C(O)CCN2c2nc(C)cc(C(F)(F)F)c2C#N)c1 :: 49.5
C#Cc1c(F)ccc2cc(O)cc(-c3ncc4c(N5CC6CCC(C5)N6)nc(OCC56CCCN5CC(F)C6)nc4c3F)c12 (stereo not drawn) + COC1C(OC(N)=O)C(O)C(Oc2ccc3c(O)c(NC(=O)c4ccc(O)c(CC=C(C)C)c4)c(=O)oc3c2C)OC1(C)C :: 95.6

Return value of viability, T/C for input COc1cccc2c1C(=O)c1c(O)c3c(c(O)c1C2=O)CC(O)(C(=O)CO)CC3OC1CC(N)C(O)C(C)O1 (stereo not drawn) + Nc1ccc(C#CCN(C(=O)Cc2ncc(C(F)(F)F)cc2C(F)(F)F)c2ccc(F)cc2)nn1 , no commentary.
68.7
